Reference for the values: patent US4206116A

For K. pneumoniae A9977, measured MIC is reported for the entries below.
reported property: MIC

compound	measured result
CC1(C)S[C@@H]2[C@H](NC(=O)C(C(=O)O)c3ccccc3)C(=O)N2[C@H]1C(=O)O (some centres unmarked) [carbenicillin, reference compound]	1.6 µg/mL
CCN1CCN(C(=O)N[C@H](C(=O)N[C@@H]2C(=O)N3[C@@H]2SC(C)(C)[C@@H]3C(=O)O)c2ccc(O)c(O)c2)C(=O)C1=O	0.8 µg/mL
CCN1CCN(C(=O)N[C@@H](C(=O)N[C@@H]2C(=O)N3[C@@H]2SC(C)(C)[C@@H]3C(=O)O)c2ccccc2)C(=O)C1=O [piperacillin, reference compound]	0.8 µg/mL
CCN1CCN(C(=O)N[C@@H](C(=O)N[C@@H]2C(=O)N3[C@@H]2SC(C)(C)[C@@H]3C(=O)O)c2ccc(O)c(O)c2)C(=O)C1=O	0.025 µg/mL
CCN1CCN(C(=O)NC(C(=O)N[C@@H]2C(=O)N3[C@@H]2SC(C)(C)[C@@H]3C(=O)O)c2ccc(O)c(O)c2)C(=O)C1=O (mixture of isomers)	0.05 µg/mL

###

Mean % relative activity (carbenicillin = 100%) values by entry
test system: S. aureus (6 strains); experiment: Mean % relative activity to carbenicillin from geometric mean MIC; type: cell-based; conditions: from geometric mean of MIC
reported property: Mean % relative activity (carbenicillin = 100%)

compound	unit string	measured result
CCN1CCN(C(=O)NC(C(=O)N[C@@H]2C(=O)N3[C@@H]2SC(C)(C)[C@@H]3C(=O)O)c2ccc(O)c(O)c2)C(=O)C1=O (mixture of isomers)	%	25
CCN1CCN(C(=O)N[C@H](C(=O)N[C@@H]2C(=O)N3[C@@H]2SC(C)(C)[C@@H]3C(=O)O)c2ccc(O)c(O)c2)C(=O)C1=O	%	22
CCN1CCN(C(=O)N[C@@H](C(=O)N[C@@H]2C(=O)N3[C@@H]2SC(C)(C)[C@@H]3C(=O)O)c2ccc(O)c(O)c2)C(=O)C1=O	%	22
CCN1CCN(C(=O)N[C@@H](C(=O)N[C@@H]2C(=O)N3[C@@H]2SC(C)(C)[C@@H]3C(=O)O)c2ccccc2)C(=O)C1=O [piperacillin, reference compound]	%	56

###

system: E. coli Juhl; assay: MIC, serial two-fold agar dilution, Mueller-Hinton agar; type: cell-based; conditions: Escherichia coli; E. coli Juhl; agar dilution, Mueller-Hinton agar; read-out: MIC
reported property: MIC (µg/mL)

compound	reported property	measured result
CCN1CCN(C(=O)N[C@@H](C(=O)N[C@@H]2C(=O)N3[C@@H]2SC(C)(C)[C@@H]3C(=O)O)c2ccc(O)c(O)c2)C(=O)C1=O	MIC	0.4
CC1(C)S[C@@H]2[C@H](NC(=O)C(C(=O)O)c3ccccc3)C(=O)N2[C@H]1C(=O)O (stereo partly shown) [carbenicillin, reference compound]	MIC	3.1
CCN1CCN(C(=O)NC(C(=O)N[C@@H]2C(=O)N3[C@@H]2SC(C)(C)[C@@H]3C(=O)O)c2ccc(O)c(O)c2)C(=O)C1=O (mixture of isomers)	MIC	0.8
CCN1CCN(C(=O)N[C@H](C(=O)N[C@@H]2C(=O)N3[C@@H]2SC(C)(C)[C@@H]3C(=O)O)c2ccc(O)c(O)c2)C(=O)C1=O	MIC	6.3

###

test: Blood Level (im, 20mg/kg); format: in vivo; conditions: blood, sc, 20 mg/kg, route: sc (footnote 2)
reported property: half-life (min)

compound	measured result
CCN1CCN(C(=O)N[C@@H](C(=O)N[C@@H]2C(=O)N3[C@@H]2SC(C)(C)[C@@H]3C(=O)O)c2ccccc2)C(=O)C1=O [piperacillin, reference compound]	44
